Sourced from paper PMC7268320

The compounds listed here are annotated with their fraction unbound.
- Assay Comment: Calculated free (protein-unbound) drug levels in CSF, law of mass action
- Type: in vivo, human
- Measurement Conditions: human, CSF, oral; law of mass action approach; read-out: unbound fraction of the total drug amount measured in CSF

[
  {
    "Compound": "O=C(CCCCCCC(=O)Nc1ccccc1)NO [vorinostat]",
    "fraction unbound": "~0.99"
  },
  {
    "Compound": "CNC(=O)c1cc(Oc2ccc(NC(=O)Nc3ccc(Cl)c(C(F)(F)F)c3)c(F)c2)ccn1 [regorafenib]",
    "fraction unbound": "< 0.6"
  },
  {
    "Compound": "Cc1nc(Nc2ncc(C(=O)Nc3c(C)cccc3Cl)s2)cc(N2CCN(CCO)CC2)n1 [dasatinib]",
    "fraction unbound": "~0.99"
  },
  {
    "Compound": "CN(C)C(=O)c1cc2cnc(Nc3ccc(N4CCNCC4)cn3)nc2n1C1CCCC1 [ribociclib]",
    "fraction unbound": "~0.99"
  }
]
